Listed below: AC50 values for each entry.
System: MOLP-8 human multiple myeloma cell line
Assay: MOLP8 Caspase-Glo 3/7 apoptosis induction assay
Assay type: cell-based
Conditions: MOLP-8 cells, 2 hours incubation at 37° C.; averaged values over all runs on all batches
Numbers only; they are read as µM.

Study these solved cases before continuing.
compound: Cc1c(C(=O)O)n2c3ccc(Cl)c(c13)-c1c(nn(C)c1C)C(CCCO)OCc1cc(n(C)n1)CCc1cc(c3ccc(F)cc3c1)OCCC2 (single isomer, unassigned) [Compound 11]
AC50 (µM): 0.303

compound: Cc1c(C(=O)O)n2c3ccc(Cl)c(c13)-c1c(nn(C)c1C)C(C)OCc1cc(n(C)n1)CCc1cc(c3ccc(F)cc3c1)OCCC2 (single isomer, unassigned) [Compound 18]
AC50 (µM): 0.0354

compound: Cc1nn2c3c1-c1c(Cl)ccc4c1c(C)c(C(=O)O)n4CCCOc1cc(cc4cc(F)ccc14)CCc1cc(nn1C)CCC3OCC2 (centres unmarked) [Compound 30]
AC50 (µM): 0.0528

I would be grateful if you could share the reported AC50 for COCCC1OCc2cc(n(C)n2)CCc2cc(c3ccc(F)cc3c2)OCCCn2c(C(=O)O)c(C)c3c(c(Cl)ccc32)-c2c1nn(C)c2C (single isomer, unassigned) [Compound 3] .
0.154

----------
Biological target: Myeloid Cell Leukemia 1 (Mcl-1) (Homo sapiens (Human), UniProt Q07820)
Sequence (Q07820 whole entry): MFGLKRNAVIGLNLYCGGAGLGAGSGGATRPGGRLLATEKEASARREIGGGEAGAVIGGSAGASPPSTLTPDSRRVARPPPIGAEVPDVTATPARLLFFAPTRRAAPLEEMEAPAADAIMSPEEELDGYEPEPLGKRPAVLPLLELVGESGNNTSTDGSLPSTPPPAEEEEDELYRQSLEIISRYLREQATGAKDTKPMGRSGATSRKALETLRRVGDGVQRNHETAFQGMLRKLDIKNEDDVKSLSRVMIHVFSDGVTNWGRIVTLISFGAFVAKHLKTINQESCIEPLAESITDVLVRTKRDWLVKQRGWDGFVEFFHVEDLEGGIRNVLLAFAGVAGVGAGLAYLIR
Test: Terbium labeled Mcl-1 HTRF binding assay (displacement of Cy5-labeled BIM BH3 peptide)
Details: 25 pM Tb-Mcl-1, 8 nM Cy5 Bim peptide, Ki=IC50/(1+[L]/Kd), [L]=8 nM, Kd=10 nM, read-out: TB-MCL1 Ki
Checkbox rule: Ki lower than 0.4 nM = label 1; Ki not lower than 0.4 nM = label 0.

compound: COc1ccc(COC2CCc3cc(n(C)n3)CCc3cc(c4ccc(F)cc4c3)OCCCn3c(C(=O)O)c(C)c4c(c(Cl)ccc43)-c3c2nn(C)c3C)cc1 (single isomer, unassigned) [Compound 22]
systemName: Myeloid Cell Leukemia 1 (Mcl-1) (Homo sapiens (Human), UniProt Q07820)
className: label 1

Determine if COc1ccc(COC2CCc3cc(n(C)n3)CCc3cc(c4ccc(F)cc4c3)OCCCn3c(C(=O)O)c(C)c4c(c(Cl)ccc43)-c3c2nn(C)c3C)cc1 (single isomer, unassigned) [Compound 23] shows Ki strictly lower than 0.4 nM.
label 1

Determine if COCCCC1OCc2cc(n(C)n2)CCc2cc(c3ccc(F)cc3c2)OCCCn2c(C(=O)O)c(C)c3c(c(Cl)ccc32)-c2c1nn(C)c2C (single isomer, unassigned) [Compound 24] shows Ki strictly lower than 0.4 nM.
label 0

Determine if COCCCC1OCc2cc(n(C)n2)CCc2cc(c3ccc(F)cc3c2)OCCCn2c(C(=O)O)c(C)c3c(c(Cl)ccc32)-c2c1nn(C)c2C (single isomer, unassigned) [Compound 12] shows Ki strictly lower than 0.4 nM.
label 1

Determine if COCCC1OCc2cc(n(C)n2)CCc2cc(c3ccc(F)cc3c2)OCCCn2c(C(=O)O)c(C)c3c(c(Cl)ccc32)-c2c1nn(C)c2C (single isomer, unassigned) [Compound 3] shows Ki strictly lower than 0.4 nM.
label 1

----------
log10 Ki data for UniProt Q07820 follow.
Please note: log10 values; quantity Ki; unit nM.

Study these solved cases before continuing.
compound: COCCOCCn1nc(C)c2c1C(C)OCc1cc(n(C)n1)CCc1cc(c3ccc(F)cc3c1)OCCCn1c(C(=O)O)c(C)c3c-2c(Cl)ccc31 (stereo not shown)
systemName: UniProt Q07820
log10 Ki: -1.24

compound: Cc1nn2c3c1-c1c(Cl)ccc4c1c(C)c(C(=O)O)n4CCCOc1cc(cc4cc(F)ccc14)CCc1cc(nn1C)CCC3OCC2 (stereo not shown)
systemName: UniProt Q07820
log10 Ki: -0.52

compound: COCCOCCC1OCc2cc(n(C)n2)CCc2cc(c3ccc(F)cc3c2)OCCCn2c(C(=O)O)c(C)c3c(c(Cl)ccc32)-c2c1nn(C)c2C (single isomer, unassigned)
systemName: UniProt Q07820
log10 Ki: -1.96

I would be grateful if you could share the reported log10 Ki for C=CC1OCc2cc(n(C)n2)CCc2cc(c3ccc(F)cc3c2)OCCCn2c(C(=O)O)c(C)c3c(c(Cl)ccc32)-c2c1nn(C)c2C (single isomer, unassigned) [Compound 1] .
-1.23
